Can you tell me logP for the items I'm about to list?
- Experimental details: method code SF-AS, from DOI: 10.1002/jps.2600710122
Answers are plain numbers.

Please fill in: logP reported for O=C(Nc1n[nH]c(NC(=O)c2ccc([N+](=O)[O-])cc2)n1)c1ccc([N+](=O)[O-])cc1 = 0.55

Please fill in: logP reported for CCC(=O)Nc1n[nH]c(NC(=O)CC)n1 = -0.07

Please fill in: logP reported for CCCC(=O)Nc1n[nH]c(NC(=O)CCC)n1 = 0.79

# context switch: different compound, same logP
Please fill in: logP reported for O=C(Nc1n[nH]c(NC(=O)C(F)(F)F)n1)C(F)(F)F = 0.62
